# assayed.system: hGIPR (Homo sapiens)
# Sequence (P48546 22-466): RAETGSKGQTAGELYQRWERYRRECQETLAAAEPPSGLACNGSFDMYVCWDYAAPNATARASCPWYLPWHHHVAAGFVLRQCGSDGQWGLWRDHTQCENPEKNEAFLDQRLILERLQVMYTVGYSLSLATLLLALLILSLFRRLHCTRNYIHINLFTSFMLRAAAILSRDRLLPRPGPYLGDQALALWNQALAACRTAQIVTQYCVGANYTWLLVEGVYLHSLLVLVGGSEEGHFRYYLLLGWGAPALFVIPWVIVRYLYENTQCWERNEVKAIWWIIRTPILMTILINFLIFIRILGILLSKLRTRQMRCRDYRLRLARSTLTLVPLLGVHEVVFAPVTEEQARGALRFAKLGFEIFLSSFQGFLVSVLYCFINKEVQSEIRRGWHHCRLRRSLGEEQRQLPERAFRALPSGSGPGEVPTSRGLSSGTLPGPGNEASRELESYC
# protocol.description: Functional cAMP activation in the presence of 0.1% casein (no HSA);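 note: intracellular cAMP rise after 30 min at 37 °C read by HTRF against a standard curve, scaled between buffer alone (0%) and top control ligand concentration (100%), four-parameter fit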
# Format: cell-based
# condition.parameters: in the presence of 0.1% casein (no HSA); geometric mean; read-out: Relative cAMP EC50, hGIPR
Starred links: 1 amine or outer side, 2 acyl side, 3 side chain; linkers in the order of their positions; H or OH if unused. Non-standard residues stand in square brackets, D forms with d. Groups on a side chain read outwards from the residue. *: point of attachment. C20 diacid = O=C(O)CCCCCCCCCCCCCCCCCCC(=O)*; C18 diacid = O=C(O)CCCCCCCCCCCCCCCCC(=O)*; αMePhe(2-F) = C[C@](N)(Cc1ccccc1F)C(=O)O; γGlu = O=C(O)[C@H](CCC(=O)[*:2])N[*:1]; αMe4Pal = C[C@](N)(Cc1ccncc1)C(=O)O; 4Pal = N[C@@H](Cc1ccncc1)C(=O)O; αMeL = CC(C)C[C@](C)(N)C(=O)O; Orn = NCCC[C@H](N)C(=O)O; AEEA = NCCOCCOCC(=O)O; Aib = CC(C)(N)C(=O)O
reported.property: EC50 (pM)

[[record]]
substance = "H-Y[Aib]QGTFTSD[4Pal]S[Orn][αMeL]LDKK([γGlu-γGlu-C18 diacid])AQ[αMe4Pal]AFIE[αMe4Pal]LIEGGPSSGAPPPSGSEE-NH2 [Example 958]"
assayed_system = "hGIPR (Homo sapiens)"
unit_name = "pM"
reading = 343

[[record]]
substance = "H-Y[Aib]QGTFTSD[4Pal]SK[αMeL]LDKK([γGlu-γGlu-C18 diacid])AQ[Aib]AFIEYLIE[Aib]GPSSGAPPPSGSE-NH2 [Example 904]"
assayed_system = "hGIPR (Homo sapiens)"
unit_name = "pM"
reading = 194

[[record]]
substance = "H-Y[Aib]QGT[αMePhe(2-F)]TSDYSKLLDKIAQK([AEEA-γGlu-C20 diacid])AFIEYLIEGGPSSGAPPPSEG-NH2 [Example 339]"
assayed_system = "hGIPR (Homo sapiens)"
unit_name = "pM"
reading = 101


---

# assayed.system: human GLP1-R (Homo sapiens)
# Sequence (P43220 24-463): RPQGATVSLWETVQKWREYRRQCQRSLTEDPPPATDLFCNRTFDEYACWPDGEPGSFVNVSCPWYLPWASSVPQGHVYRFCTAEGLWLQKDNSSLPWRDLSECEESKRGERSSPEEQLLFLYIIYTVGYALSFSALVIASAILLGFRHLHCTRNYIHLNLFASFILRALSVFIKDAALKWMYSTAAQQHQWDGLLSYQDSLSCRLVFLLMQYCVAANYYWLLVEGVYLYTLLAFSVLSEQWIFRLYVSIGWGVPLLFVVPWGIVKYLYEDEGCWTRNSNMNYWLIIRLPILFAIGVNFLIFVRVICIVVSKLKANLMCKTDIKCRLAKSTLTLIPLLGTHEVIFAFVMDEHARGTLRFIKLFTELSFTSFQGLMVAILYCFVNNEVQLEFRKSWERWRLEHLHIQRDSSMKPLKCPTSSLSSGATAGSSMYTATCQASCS
# protocol.description: GLP1-R internalization assay in HEK293 cells
# Type: cell-based
# condition.parameters: normalized to maximum concentration of GLP-1 (100%)
Starred links: 1 amine or outer side, 2 acyl side, 3 side chain; linkers in the order of their positions; H or OH if unused. Non-standard residues stand in square brackets, D forms with d. Groups on a side chain read outwards from the residue. *: point of attachment. C20 diacid = O=C(O)CCCCCCCCCCCCCCCCCCC(=O)*; C18 diacid = O=C(O)CCCCCCCCCCCCCCCCC(=O)*; γGlu = O=C(O)[C@H](CCC(=O)[*:2])N[*:1]; αMe4Pal = C[C@](N)(Cc1ccncc1)C(=O)O; 4Pal = N[C@@H](Cc1ccncc1)C(=O)O; αMeL = CC(C)C[C@](C)(N)C(=O)O; Orn = NCCC[C@H](N)C(=O)O; AEEA = NCCOCCOCC(=O)O; Aib = CC(C)(N)C(=O)O
// reported Internalization % TOP per item
reported.property: Internalization % TOP (%)

[[record]]
substance = "H-Y[Aib]QGTFTSDFSK[αMeL]LDKK([AEEA-γGlu-C20 diacid])AQ[Aib]AFIEYLLAGGPSSGEPPPSSE-NH2 [Example 3]"
unit_name = "%"
reading = 69.7

[[record]]
substance = "H-Y[Aib]QGTFTSD[4Pal]SR[αMeL]LDKK([AEEA-γGlu-C18 diacid])AQ[Aib]AFIEYLLE[Aib]GPSSGAPPPSGE-NH2 [Example 114]"
unit_name = "%"
reading = 62.9

[[record]]
substance = "H-Y[Aib]QGTFTSDFSK[αMeL]LDKK([AEEA-γGlu-C20 diacid])AQ[Aib]AFIEYLLAGGPSSGAPPPGGE-NH2 [Example 15]"
unit_name = "%"
reading = 74.9

[[record]]
substance = "H-Y[Aib]QGTFTSD[4Pal]S[Orn][αMeL]LDKK([AEEA-γGlu-C18 diacid])AQ[αMe4Pal]AFIEYLIE[Aib]GESSGAPPPSGE-NH2 [Example 222]"
unit_name = "%"
reading = 52.4

[[record]]
substance = "H-Y[Aib]QGTFTSDFS[Orn][αMeL]LDKK([AEEA-AEEA-γGlu-C18 diacid])AQ[Aib]AFIEYLLE[Aib]GESSGAPPPSGS-NH2 [Example 179]"
unit_name = "%"
reading = 48.4

[[record]]
substance = "H-Y[Aib]QGTFTSDFS[Orn][αMeL]LDKK([AEEA-γGlu-C18 diacid])AQ[Aib]AFIEYLLEGGPSSGAPPPGGT-NH2 [Example 158]"
unit_name = "%"
reading = 52.4

[[record]]
substance = "H-Y[Aib]QGTFTSDFS[Orn][αMeL]LDKK([AEEA-γGlu-C18 diacid])AQ[Aib]AFIEYLLEGGHSSGAPPPGGS-NH2 [Example 162]"
unit_name = "%"
reading = 44.8

[[record]]
substance = "H-Y[Aib]QGTFTSDFS[Orn][αMeL]LDKK([AEEA-AEEA-γGlu-C18 diacid])AQ[Aib]AFIEYLLE[Aib]GHSSGAPPPSGS-NH2 [Example 181]"
unit_name = "%"
reading = 47.5

[[record]]
substance = "H-Y[Aib]QGTFTSD[4Pal]SR[αMeL]LDKK([AEEA-γGlu-C18 diacid])AQ[αMe4Pal]AFIEYLIE[Aib]GESSGAPPPSGS-NH2 [Example 224]"
unit_name = "%"
reading = 61.9

[[record]]
substance = "H-Y[Aib]QGTFTSDFS[Orn][αMeL]LDKK([AEEA-γGlu-C18 diacid])AQ[Aib]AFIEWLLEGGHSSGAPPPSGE-NH2 [Example 122]"
unit_name = "%"
reading = 43.7


---

# assayed.system: hGLP-1R (Homo sapiens, UniProt P43220)
# protocol.description: Functional cAMP activity in the presence of 1% HSA
# Assay type: cell-based
# condition.parameters: read-out: cAMP Rel EC50, hGLP-1R
Starred links: 1 amine or outer side, 2 acyl side, 3 side chain; linkers in the order of their positions; H or OH if unused. Non-standard residues stand in square brackets, D forms with d. Groups on a side chain read outwards from the residue. No end group written: not given here. *: point of attachment. C20 diacid = O=C(O)CCCCCCCCCCCCCCCCCCC(=O)*; C18 diacid = O=C(O)CCCCCCCCCCCCCCCCC(=O)*; αMePhe(2-F) = C[C@](N)(Cc1ccccc1F)C(=O)O; γGlu = O=C(O)[C@H](CCC(=O)[*:2])N[*:1]; NMeY = CN[C@@H](Cc1ccc(O)cc1)C(=O)O; αMe4Pal = C[C@](N)(Cc1ccncc1)C(=O)O; αMeY = C[C@](N)(Cc1ccc(O)cc1)C(=O)O; αMeF = C[C@](N)(Cc1ccccc1)C(=O)O; 4Pal = N[C@@H](Cc1ccncc1)C(=O)O; αMeL = CC(C)C[C@](C)(N)C(=O)O; αMeS = C[C@](N)(CO)C(=O)O; Orn = NCCC[C@H](N)C(=O)O; AEEA = NCCOCCOCC(=O)O; Aib = CC(C)(N)C(=O)O
reported.property: log10 of EC50 (log10 of the value in nM)

[[record]]
substance = "H-Y[Aib]QGTFTSDFS[Orn][αMeL]LDKK([AEEA-γGlu-C18 diacid])AQ[Aib]AFIEWLLEGGPSSGAPPPEG[4Pal]-NH2 [Example 262]"
reading = 2.60

[[record]]
substance = "H-Y[Aib]QGTFTSDFS[Orn][αMeL]LDKK([γGlu-AEEA-γGlu-C18 diacid])AQ[Aib]AFIEYLLE[Aib]GHSSGAPPPSGS-NH2 [Example 245]"
reading = 2.73

[[record]]
substance = "H-Y[Aib]QGTFTSD[4Pal]S[Orn][αMeL]LDKK([γGlu-γGlu-C18 diacid])AQ[αMe4Pal]AFIE[αMeY]LIAGGPSSGEPPPSGS-NH2 [Example 1014]"
reading = 1.94

[[record]]
substance = "H-Y[Aib]QGT[αMePhe(2-F)]TSD[4Pal][αMeS]I[αMeL]LD[Orn]K([γGlu-γGlu-C18 diacid])AQ[αMe4Pal]EFI[dE][αMeY]LIEGGPSSGAPPPSGTGE-NH2 [Example 718]"
reading = 1.37

[[record]]
substance = "H-Y[Aib]QGTFTSDFS[Orn][αMeL]LDKK([AEEA-γGlu-C18 diacid])AQ[Aib]AFIEYLLEGGPSSGAPPPGGSE-NH2 [Example 65]"
reading = 2.66

[[record]]
substance = "H-[NMeY][Aib]QGT[αMeF]TSDYSILLDKIAAK([AEEA-AEEA-γGlu-C20 diacid])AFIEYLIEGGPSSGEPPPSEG-NH2 [Example 299]"
reading = 2.58

[[record]]
substance = "Y[Aib]QGTFTSD[4Pal]SQ[αMeL]LDKK([dE-γGlu-dE-C18 diacid])AQ[αMe4Pal]AFIEYLIE[Aib]GPSSGAPPPSGSEE-NH2 [Example 931]"
reading = 2.94

